Test system: IL-17A production in anti-CD3/anti-CD28 stimulated peripheral blood mononuclear cells (PBMCs)
Experiment: Peripheral blood mononuclear cell (PBMC) IL-17 assay
Settings: Homo sapiens, 120 h, read-out:
EXPERIMENTAL ENDPOINT: IC50

Report IC50 for "CCN(C(=O)c1ccc(NC(=O)Cc2ccc(S(=O)(=O)CC)cc2)cc1)c1nc(C)c(C)s1" please. ≤ 100 nM

---

Target: RORγ (Homo sapiens)
Construct: expressed in transfected cells; host or cells: 293FT cells (Invitrogen), expression vector pFN26A (Promega)
Test: RORγ GAL4 reporter gene assay (luciferase readout, 293FT cells)
Assay type: cell-based
Settings: inhibition of RORγ (GAL4-RORγ-LBD) luciferase signal in transfected 293FT cells, overnight incubation; read-out: mean pIC50 (converted)
Measured IC50 accompanies every entry in the list below.

Example entries begin here.
Report IC50 for "CCS(=O)(=O)c1ccc(CC(=O)Nc2ccc(C(=O)N(C3CCC3)C3CCC3)cc2)cc1" please. ≤ 1 µM

Report IC50 for "CCS(=O)(=O)c1ccc(CC(=O)Nc2ccc(C(=O)N(C)Cc3ccco3)cc2)cc1" please. ≤ 1 µM

Report IC50 for "CCS(=O)(=O)c1ccc(CC(=O)Nc2ccc(C(=O)N(c3ccc(C)cc3)C(C)(C)CO)cc2)cc1" please. ≤ 0.1 µM

Report IC50 for "CCCN(Cc1ccccc1)C(=O)c1ccc(NC(=O)Cc2ccc(S(=O)(=O)CC)cc2)cc1" please. ≤ 0.1 µM

Report IC50 for "CCCN(C(=O)c1ccc(NC(=O)Cc2ccc(S(=O)(=O)CC)cc2)cc1)c1cccnc1" please. ≤ 0.1 µM

Report IC50 for "CCN(C(=O)c1ccc(NC(=O)Cc2ccc(S(=O)(=O)CC)cc2)cc1)c1cc(C)nn1C" please. ≤ 0.1 µM

Report IC50 for "CCCN(CC1CC1)C(=O)c1ccc(NC(=O)Cc2ccc(S(=O)(=O)CC)cc2)cc1" please. ≤ 1 µM

// switching to the query molecule
Report IC50 for "CCS(=O)(=O)c1ccc(CC(=O)Nc2ccc(C(=O)N(C)c3ccccc3)cc2)cc1" please. ≤ 0.1 µM

---

Target: RORγ (Homo sapiens, UniProt P51449)
Construct: expressed in transfected cells; host or cells: 293FT cells (Invitrogen), expression vector pFN26A (Promega)
Sequence (P51449 269-508 limits assumed): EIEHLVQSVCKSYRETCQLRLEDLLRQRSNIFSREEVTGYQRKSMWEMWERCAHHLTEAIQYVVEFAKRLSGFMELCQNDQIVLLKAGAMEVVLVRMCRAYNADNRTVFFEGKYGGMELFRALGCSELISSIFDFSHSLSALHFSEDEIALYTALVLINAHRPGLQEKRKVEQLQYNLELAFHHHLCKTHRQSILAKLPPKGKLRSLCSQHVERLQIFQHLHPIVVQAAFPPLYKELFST
Test: RORγ GAL4 reporter gene assay (luciferase readout, 293FT cells)
Assay type: cell-based
Settings: inhibition of RORγ (GAL4-RORγ-LBD) luciferase signal in transfected 293FT cells, overnight incubation; read-out: mean pIC50 (converted)
EXPERIMENTAL ENDPOINT: IC50

Example entries begin here.
Report IC50 for "CCN(C(=O)c1ccc(NC(=O)Cc2ccc(S(=O)(=O)CC)cc2)nc1)c1ccccc1" please. ≤ 1000 nM

Report IC50 for "CCS(=O)(=O)c1ccc(CC(=O)Nc2ccc(C(=O)N(Cc3ccccc3)Cc3ccccc3)cc2)cc1" please. ≤ 100 nM

Report IC50 for "CCN(C(=O)c1ccc(NC(=O)Cc2ccc(S(=O)(=O)CC)cc2)cc1)c1cccnc1" please. ≤ 1000 nM

Report IC50 for CCS(=O)(=O)c1ccc(CC(=O)Nc2ccc(C(=O)N(c3ccccc3)C(C)(C)C3CCCO3)cc2)cc1 (centres unmarked) please. ≤ 10 nM

Report IC50 for "CCN(C(=O)c1ccc(NC(=O)Cc2ccc(S(=O)(=O)CC)cc2)cc1)c1ccccc1" please. ≤ 10 nM

Report IC50 for CCS(=O)(=O)c1ccc(CC(=O)Nc2ccc(C(=O)N3CCCC3c3ccccc3)cc2)cc1 (centres unmarked) please. ≤ 1000 nM

Report IC50 for "CCS(=O)(=O)c1ccc(CC(=O)Nc2ccc(C(=O)N(c3ccccn3)C3CCC3)cc2)cc1" please. ≤ 1000 nM

// switching to the query compound
Report IC50 for "CCN(C(=O)c1ccc(NC(=O)Cc2ccc(S(=O)(=O)CC)cc2)cc1)c1cc(C)no1" please. ≤ 100 nM
